tested on: YAC-1; test: Percent of maximum response was tested for its ability to stimulate the natural killer response in murine in vitro cell assays; format: functional, Mus musculus
# Max response per entry
Your answer is read as %, so omit the unit and give the number.

Illustrative cases are given below, each with its answer.
>>> result("CCCn1c(=O)n(C2CCC(CO)O2)c2nc(N)nc(O)c21 (stereo not given)")
102
>>> result("C=CCn1c(=O)n(C2OC(COC(=O)CCC)[C@@H](OC(=O)CCC)[C@H]2OC(=O)CCC)c2nc(NC(=O)CCC)nc(O)c21 (stereo not given in full)")
12
>>> result("C=CCn1c(=O)n(C2C=CC(CO)O2)c2nc(N)nc(O)c21 (stereo not given)")
89
>>> result("C=CCn1c(=S)n([C@@H]2O[C@H](CO)[C@H]3OC(C)(C)O[C@H]32)c2nc(N)nc(O)c21")
30

Could you now consider this next molecule?
Given "Nc1nc(O)c2nc(S)n(COCCO)c2n1" , respond with its Max response.
26

====

test system: YAC-1; experiment: Percent of maximum response was tested for its ability to stimulate the natural killer response in murine in vitro cell assays; format: functional, Mus musculus
Threshold rule: Max response greater than or equal to 20% is label 1; below that, label 0.

>>> assigned_class("N#Cc1ccc(Cn2c(=O)n(C3OC(CO)[C@@H](O)[C@H]3O)c3nc(N)nc(O)c32)cc1 (some centres not stated)")
"label 0"
>>> assigned_class("C=CCn1c(=O)n(CCCC)c2nc(N)nc(O)c21")
"label 1"

Is Max response for Cn1c(=O)n2c3c1c(=O)nc(N)n3CC1OC2[C@H](O)C1O (single isomer, unassigned) at or above 20%?
label 0

====

species on record: Mus musculus; test: Percent of maximum response was tested to augment the antibody response of B cells to sheep red blood cell challenge; type: functional
# Max response per entry
Your answer is read as %, so omit the unit and give the number.

>>> result("C=CCn1c(=O)n([C@@H](CO)OC(CO)CO)c2nc(N)nc(O)c21")
0
>>> result("C=CCn1c(=O)n(C2C=CC(CO)O2)c2nc(N)nc(O)c21 (stereo not drawn)")
45

Could you now consider this next compound?
Given "Nc1nc(O)c2nc(S)n(COCCO)c2n1" , respond with its Max response.
0

====

# Max response per entry
species on record: Mus musculus; experiment: Percent of maximum response was tested to augment the antibody response of B cells to sheep red blood cell challenge; format: functional
Your answer is read as %, so omit the unit and give the number.

>>> result("C=CCn1c(=O)n(C2OC(COC(=O)CCC)[C@@H](OC(=O)CCC)[C@H]2OC(=O)CCC)c2nc(NC(=O)CCC)nc(O)c21 (stereo partly drawn)")
109

Given C=CCn1/c(=N\C#N)n([C@H]2OC(CO)[C@@H](O)[C@H]2O)c2nc(N)nc(O)c21 (stereo partly drawn) , respond with its Max response.
85

Given CCCn1c(=O)n(C2OC(COP(=O)([O-])[O-])[C@@H](O)[C@H]2O)c2nc(N)nc(O)c21.[Li+].[Li+] (stereo partly drawn) , respond with its Max response.
76

Given "C=CCn1c(=O)n(CCC(COCc2ccccc2)COCc2ccccc2)c2nc(N)nc(O)c21" , respond with its Max response.
68

Given "Nc1nc(O)c2nc(S)n([C@H]3O[C@H](CO)[C@@H](O)[C@H]3O)c2n1" , respond with its Max response.
8

Given C=CCn1c(=O)n(C2OC(CO[Si](C)(C)C(C)(C)C)[C@@H](O)[C@H]2O)c2nc(N)nc(O)c21 (stereo partly drawn) , respond with its Max response.
5

Given NCC(O)Cn1c(=O)n(C2OC(CO)[C@@H](O)[C@H]2O)c2nc(N)nc(O)c21 (stereo partly drawn) , respond with its Max response.
110

Given N#Cc1cccc(Cn2c(=O)n(C3OC(CO)[C@@H](O)[C@H]3O)c3nc(N)nc(O)c32)c1 (stereo partly drawn) , respond with its Max response.
16

====

organism: Mus musculus; assay: Percent of maximum response was tested to augment the antibody response of B cells to sheep red blood cell challenge; format: functional
Threshold rule: Max response greater than or equal to 80% is true (1); below that, false (0).

Please review the following examples before continuing.
>>> assigned_class("[N-]=[N+]=NCC(O)Cn1c(=O)n(C2OC(CO)[C@@H](O)[C@H]2O)c2nc(N)nc(O)c21 (some centres not stated)")
"true (1)"
>>> assigned_class("C=CCn1c(=S)n(C2OC(COC(=O)c3ccccc3)[C@H]3OC(C)(C)O[C@@H]23)c2nc(N)nc(O)c21 (some centres not stated)")
"false (0)"
>>> assigned_class("CN(C)CCCn1c(=O)n(C2OC(CO)[C@@H](O)[C@H]2O)c2nc(N)nc(O)c21 (some centres not stated)")
"true (1)"
>>> assigned_class("Cc1nc2nc3c(c(O)n2n1)n(CCN1CCCCC1)c(=O)n3C1OC(CO)[C@@H](O)[C@H]1O (some centres not stated)")
"false (0)"
>>> assigned_class("CC1(C)O[C@@H]2[C@H](O1)[C@@H](CO)O[C@H]2n1c(=O)n(C/C=C/c2ccccc2)c2c(O)nc(N)nc21")
"false (0)"

Is Max response for C=CCn1c(=O)n(C2OC(COC(=O)COC)[C@@H](OC(=O)COC)[C@H]2OC(=O)COC)c2nc(NC(=O)COC)nc(O)c21 (some centres not stated) at or above 80%?
true (1)

Is Max response for "Nc1nc(O)c2nc3n(c2n1)COCCO3" at or above 80%?
false (0)

Is Max response for C=CCn1c(=O)n([C@@H]2O[C@H](CO)[C@H]3OC(C)(CCC(=O)OCC)O[C@H]32)c2nc(N)nc(O)c21 (some centres not stated) at or above 80%?
false (0)

Is Max response for C=CCn1c(=O)n(C2OC(CO)[C@@H](O)C2O)c2nc(N)nc(O)c21 (some centres not stated) at or above 80%?
true (1)

====

tested on: YAC-1; test: Percent of maximum response was tested for its ability to stimulate the natural killer response in murine in vitro cell assays; format: functional, Mus musculus
experimental endpoint: Max response
I'd appreciate it if you wrote the number followed by its unit.

>>> result("Nc1nc(O)c2nc3n(c2n1)COCCO3")
"6%"
>>> result("C=CCn1c(=O)n(C2OC(CO)[C@@H](O)C2O)c2nc(N)nc(O)c21 (some centres undefined)")
"68%"
>>> result("C=CCn1c(=O)n([C@@H]2O[C@H](CO)[C@H]3OC(C)(CCC(=O)O)O[C@H]32)c2nc(N)nc(O)c21 (some centres undefined)")
"0%"
>>> result("Nc1nc(O)c2c(n1)n(C1OC(CO)[C@@H](O)[C@H]1O)c(=O)n2Cc1ccc(OCc2ccccc2)cc1 (some centres undefined)")
"6%"
>>> result("C=CCn1c(=O)n(C2C[C@H](O)C(CO)O2)c2nc(N)nc(O)c21 (some centres undefined)")
"75%"

Provide YAC-1 Max response reading for Cc1nc2nc3c(c(O)n2n1)n(CCN1CCCCC1)c(=O)n3C1OC(CO)[C@@H](O)[C@H]1O (some centres undefined) .
0%

Provide YAC-1 Max response reading for CCCn1c(=O)n(C2CCC(COC(C)=O)O2)c2nc(NC(C)=O)nc(O)c21 (centres undefined) .
0%

====

organism: Mus musculus; assay: Percent of maximum response was tested to augment the antibody response of B cells to sheep red blood cell challenge; type: functional
experimental endpoint: Max response

Given CCn1c(=O)n(C2OC(CO)[C@@H](O)[C@H]2O)c2nc(N)nc(O)c21 (stereo partly drawn) , respond with its Max response.
82%

====

system: YAC-1; experiment: Percent of maximum response was tested for its ability to stimulate the natural killer response in murine in vitro cell assays; assay type: functional, Mus musculus
experimental endpoint: Max response (%)
Your answer is read as %, so omit the unit and give the number.

Illustrative cases are given below, each with its answer.
>>> result("C=CCn1c(=O)n([C@@H]2O[C@H](CO)[C@@H](O)[C@H]2O)c2nc(N)[nH]c(=O)c21 [LOXORIBINE]")
100
>>> result("C=CCn1c(=S)n(C2OC(COC(C)=O)[C@H]3OC(C)(C)O[C@@H]23)c2nc(N)nc(O)c21 (some centres not stated)")
30

Given Nc1nc(O)c2c(n1)n(C1OC(CO)[C@@H](O)[C@H]1O)c(=O)n2Cc1ccc([N+](=O)[O-])cc1 (some centres not stated) , respond with its Max response.
50

Given CCCn1c(=O)n(C2OC(COP(=O)([O-])[O-])[C@@H](O)[C@H]2O)c2nc(N)nc(O)c21.[Li+].[Li+] (some centres not stated) , respond with its Max response.
15

Given NC(=O)Cn1c(=O)n(C2OC(CO)[C@@H](O)[C@H]2O)c2nc(N)nc(O)c21 (some centres not stated) , respond with its Max response.
42

Given N#Cc1cccc(Cn2c(=O)n(C3OC(CO)[C@@H](O)[C@H]3O)c3nc(N)nc(O)c32)c1 (some centres not stated) , respond with its Max response.
11

Given "C=CCn1c(=O)n([C@@H]2O[C@H](CO)[C@H]3OC(=O)O[C@H]32)c2nc(N)nc(O)c21" , respond with its Max response.
90

Sourced from ChEMBL document CHEMBL1127795
